target_or_system: HCV NS3-4A serine protease (full-length NS3-4A protein, genotype 1a, strain HCV-1) (Hepatitis C virus genotype 1a)
Construct: using the full-length NS3-4A protein (genotype 1a, strain HCV-1)
Sequence (P26664 1658-1711): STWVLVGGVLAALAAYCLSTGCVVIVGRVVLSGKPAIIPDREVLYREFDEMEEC
Sequence (P26664 1027-1657): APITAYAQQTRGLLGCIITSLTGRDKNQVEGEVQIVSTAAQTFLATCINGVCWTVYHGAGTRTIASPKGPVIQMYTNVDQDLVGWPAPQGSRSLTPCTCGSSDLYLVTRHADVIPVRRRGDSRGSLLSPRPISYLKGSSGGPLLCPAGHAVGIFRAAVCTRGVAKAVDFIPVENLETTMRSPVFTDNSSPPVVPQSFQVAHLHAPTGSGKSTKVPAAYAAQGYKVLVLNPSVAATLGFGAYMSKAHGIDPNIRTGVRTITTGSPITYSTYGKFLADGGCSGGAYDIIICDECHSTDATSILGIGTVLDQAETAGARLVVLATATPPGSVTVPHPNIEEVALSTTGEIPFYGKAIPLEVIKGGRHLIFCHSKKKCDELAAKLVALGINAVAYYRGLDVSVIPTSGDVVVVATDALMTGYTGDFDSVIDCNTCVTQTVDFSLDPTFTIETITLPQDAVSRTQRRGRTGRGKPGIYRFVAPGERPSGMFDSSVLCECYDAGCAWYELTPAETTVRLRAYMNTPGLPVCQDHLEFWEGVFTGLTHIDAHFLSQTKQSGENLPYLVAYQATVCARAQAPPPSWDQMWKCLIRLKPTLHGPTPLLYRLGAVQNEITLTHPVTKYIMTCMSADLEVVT
test_protocol: HCV NS3-4A protease assay
Type: biochemical
condition: Protease IC50
Reported IC50 values for a set of compounds

Consider the worked cases shown below.
{"compound": "C=C[C@@H]1C[C@]1(NC(=O)[C@@H]1C[C@@]2(CN1C(=O)[C@@H](NC(=O)[C@@H](NC(=O)[C@H]1CCCN1C(C)C)C(C)(C)C)C(C)(C)C)C(C)(C)C21CCC1)C(=O)NS(=O)(=O)C1CC1", "IC50": "1.5 nM"}
{"compound": "C=C[C@@H]1C[C@]1(NC(=O)[C@@H]1C[C@@]2(CN1C(=O)C(NC(=O)[C@@H](NC(=O)c1cnccn1)C1CCCCC1)C(C)(C)C)C(C)(C)C21CCC1)C(=O)NS(=O)(=O)C1CC1 (stereo partly shown)", "IC50": "2.5 nM"}
{"compound": "C=C[C@@H]1C[C@]1(NC(=O)[C@@H]1C[C@@]2(CN1C(=O)[C@@H](NC(=O)[C@@H](NC(=O)[C@H]1CCN1C(C)C)C(C)(C)C)C(C)(C)C)C(C)(C)C21CCC1)C(=O)NS(=O)(=O)C1CC1", "IC50": "15 nM"}

The record that follows has no IC50 shown yet.
Could you tell me which IC50 is on file for "CC[C@@H]1C[C@]1(NC(=O)[C@@H]1C[C@@]2(CN1C(=O)[C@@H](NC(=O)[C@@H](NC(=O)[C@@H]1CCCCN1C(C)C)C(C)(C)C)C(C)(C)C)C(C)(C)C21CCC1)C(=O)NS(=O)(=O)C1CC1" ? 3.5 nM
